Target: Hepatitis C virus NS3 helicase (ATPase activity)
Assay: HCV NS3 ATP hydrolysis blockers – biochemical, absorbance, mechanism study for HCV NS3 helicase inhibitor project, late-stage follow-up (AID 623973)
Conditions: absorbance phosphate detection
Active and inactive are the calls of the source. No rule for the calls is given here.
Would you mind answering with one of these outcomes? active, inactive

Please review the following examples before continuing.
• Cc1ccc2nc(-c3ccc4nc(-c5ccc(NC(=O)Nc6ccccc6)cc5)sc4c3)sc2c1S(=O)(=O)O = active
• Cc1ccc2c(sc(-c3ccc4c(c3)sc(-c3ccc5c(c3)sc(-c3ccc(N(C)C)cc3)[n+]5C)[n+]4C)[n+]2C)c1S(=O)(=O)O (tested in a mixture with another compound) = inactive
• Cc1cc(C(O)(c2ccc(Nc3ccccc3)cc2)c2ccc(Nc3ccc(S(=O)(=O)O)cc3)cc2)ccc1N (configuration not stated) = inactive
• Cc1ccc2nc(-c3ccc(NC(=O)c4ccc(NC(=O)Nc5ccccc5)cc4)cc3)sc2c1S(=O)(=O)O = inactive
• COc1ccc(C(=O)Nc2ccc(-c3nc4ccc(-c5nc6ccc(C)c(S(=O)(=O)O)c6s5)cc4s3)cc2)cc1 = active

Req: Dear all, I need the recorded test outcome for Cc1ccc2nc(-c3ccc4nc(-c5ccc(NC(=O)c6ccc7ccccc7c6)cc5)sc4c3)sc2c1S(=O)(=O)O , thank you.
Resp: active

Req: Dear all, I need the recorded test outcome for Cc1ccc2nc(-c3ccc4nc(-c5ccc(NC(=O)c6ccc(Cl)c(Cl)c6)cc5)sc4c3)sc2c1S(=O)(=O)O , thank you.
Resp: active

====

Biological target: Hepatitis C virus NS3 helicase (ATPase activity)
Assay: HCV NS3 ATP hydrolysis blockers – biochemical, absorbance, mechanism study for HCV NS3 helicase inhibitor project, late-stage follow-up (AID 623973)
Conditions: absorbance phosphate detection
The source made the active and inactive calls. The rule behind the calls is not given here.
Would you mind answering with one of these outcomes? active, inactive

Please review the following examples before continuing.
* Cc1ccc2nc(-c3ccc4nc(-c5ccc6nc(-c7ccc8nc(-c9ccc(N)cc9)sc8c7)sc6c5)sc4c3)sc2c1S(=O)(=O)O | active
* Cc1ccc2nc(-c3ccc4nc(-c5ccc(N)cc5)sc4c3)sc2c1S(=O)(=O)O | inactive
* CCOc1ccc2c(NNC(=O)c3cnccn3)c3c(nc2c1)CCCC3 | inactive
* COc1ccc(NC(=O)Nc2ccc(-c3nc4ccc(-c5nc6ccc(C)c(S(=O)(=O)O)c6s5)cc4s3)cc2)cc1 | active
* CCN(CC)c1ccc(-c2nc3ccc(C)c(S(=O)(=O)O)c3s2)cc1 | inactive

Req: Dear all, I need the recorded test outcome for Cc1ccc2nc(-c3ccc(N)cc3)sc2c1S(=O)(=O)O , thank you.
Resp: inactive

Req: Dear all, I need the recorded test outcome for Cc1ccc(C(=O)Nc2ccc(-c3nc4ccc(-c5nc6ccc(C)c(S(=O)(=O)O)c6s5)cc4s3)cc2)cc1 , thank you.
Resp: active

Req: Dear all, I need the recorded test outcome for Cc1ccc2nc(-c3ccc4nc(-c5ccc(NC(=O)c6cccnc6)cc5)sc4c3)sc2c1S(=O)(=O)O , thank you.
Resp: inactive

====

Biological target: Hepatitis C virus NS3 helicase (ATPase activity)
Assay: HCV NS3 ATP hydrolysis blockers – biochemical, absorbance, mechanism study for HCV NS3 helicase inhibitor project, late-stage follow-up (AID 623973)
Details: absorbance phosphate detection
The source made the active and inactive calls. No rule for the calls is given here.
Would you mind answering with one of these outcomes? label 1 for active, label 0 for inactive

Please review the following examples before continuing.
* Cc1cc2sc(-c3ccc4nc(-c5ccc(N)cc5)sc4c3)nc2cc1S(=O)(=O)O | label 0
* CCN(CC)c1ccc(-c2nc3ccc(-c4nc5ccc(C)c(S(=O)(=O)O)c5s4)cc3s2)cc1 | label 0
* Cc1ccc2nc(-c3ccc4nc(-c5ccc(NC(=O)c6ccc(C(C)(C)C)cc6)cc5)sc4c3)sc2c1S(=O)(=O)O | label 0
* Cc1ccc2nc(-c3ccc4nc(-c5ccc(NC(=O)c6ccc(C(F)(F)F)cc6)cc5)sc4c3)sc2c1S(=O)(=O)O | label 1
* COc1cccc2c(=O)c3cc(Cl)cc(C(=O)Nc4cc(Cl)ccn4)c3[nH]c12 | label 0
* Cc1ccc2nc(-c3ccc4nc(-c5ccc(NC(=O)Nc6ccc(Cl)cc6)cc5)sc4c3)sc2c1S(=O)(=O)O | label 1
* Cc1ccc2nc(-c3ccc4nc(-c5ccc(NC(=O)c6ccc(N)cc6)cc5)sc4c3)sc2c1S(=O)(=O)O | label 0

Req: Dear all, I need the recorded test outcome for Cc1ccc2nc(-c3ccc4nc(-c5ccc(NC(=O)c6cccc(Cl)c6)cc5)sc4c3)sc2c1S(=O)(=O)O , thank you.
Resp: label 1

====

Target: Hepatitis C virus NS3 helicase (ATPase activity)
Experiment: HCV NS3 ATP hydrolysis blockers – biochemical, absorbance, mechanism study for HCV NS3 helicase inhibitor project, late-stage follow-up (AID 623973)
Details: absorbance phosphate detection
Calls of active or inactive are those of the source. How the calls were made is not given here.
endpoint: IC50

Recorded IC50, per entry:
* Cc1ccc2nc(-c3ccc4nc(-c5ccc(NC(=O)c6ccc(F)cc6)cc5)sc4c3)sc2c1S(=O)(=O)O | 67 µM
* Cc1cc2sc(-c3ccc(N)cc3)nc2cc1S(=O)(=O)O | > 200 µM (inactive)
* Cc1ccc2nc(-c3ccc4nc(-c5ccc(NC(=O)c6cc(C(F)(F)F)ccc6F)cc5)sc4c3)sc2c1S(=O)(=O)O | 61 µM
* O=C(CCCCCCC(=O)Nc1ccc(-c2nc3ccccc3[nH]2)cc1)Nc1ccc(-c2nc3ccccc3[nH]2)cc1 | > 200 µM (inactive)
* Cc1ccc2nc(-c3ccc4nc(-c5ccc(NC(=O)c6ccc7nc(-c8ccc(N)cc8)sc7c6)cc5)sc4c3)sc2c1S(=O)(=O)O | > 200 µM (inactive)
* Cc1ccc2nc(-c3ccc4nc(-c5ccc(NC(=O)c6ccc(Br)cc6)cc5)sc4c3)sc2c1S(=O)(=O)O | 50 µM

Please examine the following record next.
Req: Form: Entry = CN1CCN(Cc2cc(CN3CCN(C)CC3)c(O)c(=O)c(CN3CCN(C)CC3)c2)CC1 | System = Hepatitis C virus NS3 helicase (ATPase activity) | IC50 = ____
Resp: > 200 µM (inactive)

The values you see were collected from PubChem BioAssay AID623973.
